- System: D. immitis L4 larvae
- procedure.text: Dirofilaria immitis, L4 Stage (DiL4) In Vitro Assay
- Assay type: cell-based
- applied.conditions: larval stage selectivity, ratio of DiMf MED to DiL4 MED

sample.smiles	DiMf/DiL4
CC(C)C[C@H]1C(=O)O[C@H](Cc2ccc(Cc3ccnn3C)cc2)C(=O)N(C)[C@@H](CC(C)C)C(=O)O[C@H](C)C(=O)N(C)[C@@H](CC(C)C)C(=O)O[C@H](Cc2ccc(Cc3ccnn3C)cc2)C(=O)N(C)[C@@H](CC(C)C)C(=O)O[C@H](C)C(=O)N1C	3.3
CC(C)C[C@H]1C(=O)O[C@H](Cc2ccc(Cc3ccsc3)cc2)C(=O)N(C)[C@@H](CC(C)C)C(=O)O[C@H](C)C(=O)N(C)[C@@H](CC(C)C)C(=O)O[C@H](Cc2ccc(Cc3ccsc3)cc2)C(=O)N(C)[C@@H](CC(C)C)C(=O)O[C@H](C)C(=O)N1C	200
CC(C)C[C@H]1C(=O)O[C@H](Cc2ccc(Cc3cccnc3C(F)(F)F)cc2)C(=O)N(C)[C@@H](CC(C)C)C(=O)O[C@H](C)C(=O)N(C)[C@@H](CC(C)C)C(=O)O[C@H](Cc2ccc(Cc3cccnc3C(F)(F)F)cc2)C(=O)N(C)[C@@H](CC(C)C)C(=O)O[C@H](C)C(=O)N1C	20
CC(C)C[C@H]1C(=O)O[C@H](Cc2ccc(Cc3scnc3Cl)cc2)C(=O)N(C)[C@@H](CC(C)C)C(=O)O[C@H](C)C(=O)N(C)[C@@H](CC(C)C)C(=O)O[C@H](Cc2ccc(Cc3scnc3Cl)cc2)C(=O)N(C)[C@@H](CC(C)C)C(=O)O[C@H](C)C(=O)N1C	33.3

---

Quick reference: DiMf/DiL4 of the listed items.
- System: D. immitis L4 larvae
- procedure.text: Dirofilaria immitis, L4 Stage (DiL4) In Vitro Assay
- Type: cell-based
- applied.conditions: larval stage selectivity, ratio of DiMf MED to DiL4 MED
quantity.name: DiMf/DiL4

sample.smiles	measured.target	quantity.name	relation	number
Cc1noc(C)c1Cc1ccc(C[C@H]2OC(=O)[C@H](CC(C)C)N(C)C(=O)[C@@H](C)OC(=O)[C@H](CC(C)C)N(C)C(=O)[C@@H](Cc3ccc(Cc4c(C)noc4C)cc3)OC(=O)[C@H](CC(C)C)N(C)C(=O)[C@@H](C)OC(=O)[C@H](CC(C)C)N(C)C2=O)cc1	D. immitis L4 larvae	DiMf/DiL4	>	3.3
CC(C)C[C@H]1C(=O)O[C@H](Cc2ccc(Cc3cnccc3C#N)cc2)C(=O)N(C)[C@@H](CC(C)C)C(=O)O[C@H](C)C(=O)N(C)[C@@H](CC(C)C)C(=O)O[C@H](Cc2ccc(Cc3cnccc3C#N)cc2)C(=O)N(C)[C@@H](CC(C)C)C(=O)O[C@H](C)C(=O)N1C	D. immitis L4 larvae	DiMf/DiL4	=	3
COc1ccncc1Cc1ccc(C[C@H]2OC(=O)[C@H](CC(C)C)N(C)C(=O)[C@@H](C)OC(=O)[C@H](CC(C)C)N(C)C(=O)[C@@H](Cc3ccc(Cc4cnccc4OC)cc3)OC(=O)[C@H](CC(C)C)N(C)C(=O)[C@@H](C)OC(=O)[C@H](CC(C)C)N(C)C2=O)cc1	D. immitis L4 larvae	DiMf/DiL4	=	5
CC(C)C[C@H]1C(=O)O[C@H](Cc2ccc(Cc3cccc(F)n3)cc2)C(=O)N(C)[C@@H](CC(C)C)C(=O)O[C@H](C)C(=O)N(C)[C@@H](CC(C)C)C(=O)O[C@H](Cc2ccc(Cc3cccc(F)n3)cc2)C(=O)N(C)[C@@H](CC(C)C)C(=O)O[C@H](C)C(=O)N1C	D. immitis L4 larvae	DiMf/DiL4	=	5.5

// data source = patent US11771738B2
